# Test system: MCF7
# method: Cytotoxicity against human MCF7 cells after 24 hrs by MTT assay
# Format: functional, cell-based
# condition context: MCF7, 24 h
measurement type: pIC50
Just so you know, pIC50 here is -log10 of the concentration in molar units; reply with that number alone.

Recorded results for 5 compounds are shown here.
compound=C[C@H](C/C=C/C(C)(C)O)[C@H]1CC[C@@]2(C)[C@@H]3[C@@H](O)C=C4[C@@H](CC[C@H](O)C4(C)C)[C@]3(C)CC[C@]12C tgt=MCF7 reported_value=4.34
compound="CO[C@H]1C=C2[C@@H](CC[C@H](O)[C@]2(C)CO)[C@]2(C)CC[C@]3(C)[C@@H]([C@H](C)C[C@@H](O)C=C(C)C)CC[C@@]3(C)[C@H]12 [BALSAMINOL B]" tgt=MCF7 reported_value=4.26
compound="C=C(C)[C@@H](O)[C@H](O)C[C@@H](C)[C@H]1CC[C@@]2(C)[C@@H]3[C@@H](O)C=C4[C@@H](CC[C@H](O)[C@]4(C)CO)[C@]3(C)CC[C@]12C [BALSAMINAPENTAOL A]" tgt=MCF7 reported_value=4.33
compound="CC(C)=C[C@H](O)C[C@@H](C)[C@H]1CC[C@@]2(C)[C@@H]3[C@@H](O)C=C4[C@@H](CC[C@H](O)[C@]4(C)CO)[C@]3(C)CC[C@]12C [BALSAMINOL A]" tgt=MCF7 reported_value=4.40
compound="COc1cccc2c1C(=O)c1c(O)c3c(c(O)c1C2=O)C[C@@](O)(C(=O)CO)C[C@@H]3O[C@H]1C[C@H](N)[C@H](O)[C@H](C)O1 [DOXORUBICIN]" tgt=MCF7 reported_value=6.04

Read the next record carefully.
Write down pIC50 measured for item CC(C)=C[C@H](O)C[C@@H](C)[C@H]1CC[C@@]2(C)[C@@H]3C=C[C@@]45OC[C@]3(CC[C@]12C)[C@@H]4CC[C@H](O)C5(C)C [KARAVILAGENIN E]
4.51
